The origin of these recorded values is the supplement of paper PMC8975748.

Test system: Saccharomyces cerevisiae BY4741 SeMeCo community
Assay: z-score of subpopulation abundance vs DMSO median, subpopulation auxotrophic for LM; higher = larger share of this subpopulation than in DMSO controls
Details: 10 µM; 24 h; SM minimal medium; subpopulation (auxotrophy): LM
Structures can show the parent of a compound that is named as a salt.
The following molecules are listed with their measured z-score of subpopulation abundance values.
Would you mind answering with just the numeric figure?

• Cc1c(S(=O)(=O)O)oc2c1C(=O)C(=O)c1c-2ccc2c1CCCC2(C)C [Tanshinone IIA sulfonate (sodium)] = -0.11
• CCC[C@@H]1C[C@@H](C(=O)N[C@@H]([C@H]2O[C@H](SC)[C@H](OP(=O)(O)O)[C@@H](O)[C@H]2O)[C@H](C)Cl)N(C)C1 [Clindamycin Phosphate] = 0.11
• C[C@@H]1[C@H](O)[C@@H](C)/C=C/C=C/C=C/C=C/C=C/C=C/C=C/[C@H](O[C@@H]2O[C@H](C)[C@@H](O)[C@H](N)[C@@H]2O)C[C@@H]2O[C@](O)(C[C@@H](O)C[C@@H](O)[C@H](O)CC[C@@H](O)C[C@@H](O)CC(=O)O[C@H]1C)C[C@H](O)[C@H]2C(=O)O = -0.85
• Cc1nc(NC(=O)N2CCC[C@H]2C(N)=O)sc1-c1ccnc(C(C)(C)C(F)(F)F)c1 = -1.01
• Cc1ccsc1/C=C/C1=NCCCN1C [Morantel tartrate] = -0.48
• CN1CC2c3ccccc3Oc3ccc(Cl)cc3C2C1 (configuration not stated) [Asenapine maleate] = 0.5
• Cc1[nH]c(=O)c(C#N)cc1-c1ccncc1 = -0.5
• COc1cc(NC(C)CCCN)c2ncccc2c1 (configuration not stated) [Primaquine Diphosphate] = 0.09

Exercise: Provide measured z-score of subpopulation abundance on Saccharomyces cerevisiae BY4741 SeMeCo community for Cc1c(C(N)=O)cc([N+](=O)[O-])cc1[N+](=O)[O-] [Dinitolmide] please.
Key: 0.46

Exercise: Provide measured z-score of subpopulation abundance on Saccharomyces cerevisiae BY4741 SeMeCo community for `Cc1cc(-c2ccc(/N=N/c3ccc4c(S(=O)(=O)O)cc(S(=O)(=O)O)c(N)c4c3O)c(C)c2)ccc1/N=N/c1ccc2c(S(=O)(=O)O)cc(S(=O)(=O)O)c(N)c2c1O` please.
Key: -5.69

Exercise: Provide measured z-score of subpopulation abundance on Saccharomyces cerevisiae BY4741 SeMeCo community for COC(=O)C1=C(C)NC(C)=C(C(=O)OC2CCCN(Cc3ccccc3)C2)C1c1cccc([N+](=O)[O-])c1 (configuration not stated) [Benidipine HCl] please.
Key: 1.8

Exercise: Provide measured z-score of subpopulation abundance on Saccharomyces cerevisiae BY4741 SeMeCo community for C#CCC(Cc1cnc2nc(N)nc(N)c2n1)c1ccc(C(=O)N[C@@H](CCC(=O)O)C(=O)O)cc1 (some centres not stated) [Pralatrexate] please.
Key: 3.24

###

Tested on: Saccharomyces cerevisiae BY4741 SeMeCo community
Experiment: z-score of subpopulation abundance vs DMSO median, subpopulation auxotrophic for HUM; higher = larger share of this subpopulation than in DMSO controls
Conditions: 10 µM; 24 h; SM minimal medium; subpopulation (auxotrophy): HUM
Threshold rule: z-score of subpopulation abundance greater than or equal to -0.6 is 1; below that, -1.

As a guide, the following entries are already answered.
- CCCOc1ccc2c(c1)CC[C@@H]1[C@@H]2CC[C@]2(C)[C@@H](OC)CC[C@@H]12: 1
- CC(Cc1ccc(O)c(O)c1)C(C)Cc1ccc(O)c(O)c1 (stereo not given) [Nordihydroguaiaretic acid (NDGA)]: -1

Exercise: Threshold query (z-score of subpopulation abundance >= -0.6) on CC(C)[N+](C)(CCOC(=O)C1c2ccccc2Oc2ccccc21)C(C)C [Propantheline bromide]
Key: -1
